Organism: Rattus norvegicus
Protocol: Open TG-GATES - Regimen: Single
Type: toxicity, organism-based, Sprague-Dawley
Design: regimen Single, gender Male, age 6 weeks
Condition description: in vivo, po, 30 mg/kg, 3 h, tissue Kidney, route gavage, dose level Middle
Measured parameter: KIDNEY_L
Remember to follow the number with its unit.

Which measured KIDNEY_L value corresponds to CN(C)CCN(Cc1cccs1)c1ccccn1 ?
0.8 g

Look up KIDNEY_L: CC1=C(/C=C/C(C)=C/C=C/C(C)=C/CO)C(C)(C)CCC1
0.9 g

Item under review: CN(C)CCCN1c2ccccc2CCc2ccccc21 . Reported KIDNEY_L?
0.9 g

Which KIDNEY_L value is on record for CN(C)CCCN1c2ccccc2CCc2ccc(Cl)cc21 ?
1 g
